# Experiment Description: Binding inhibitory activity of compound was evaluated against bacteriophage anti-gp120 monoclonal antibody by competition ELISA assay
pIC50: −log10 of the molar value.
Observed Property: pIC50

Solved entries:
>  <Substance>
H-ESTRAM-OH

>  <pIC50>
6.20

$$$$
>  <Substance>
H-ASTRPM-OH

>  <pIC50>
5.74

$$$$
>  <Substance>
H-EATRPM-OH

>  <pIC50>
5.20

$$$$
>  <Substance>
H-ESARPM-OH

>  <pIC50>
5.20

$$$$

A: H-ESTRPM-OH
B: H-ESTAPM-OH
*Q* Which has the smaller recorded pIC50, A or B ? Answer = label.
*A* B

Hey, just so you know, these numbers are from ChEMBL document CHEMBL1127198.
